These entries and their values trace back to BindingDB's records for doi:10.1016/j.chembiol.2015.08.013.

Parameter IC50: see the listing below.
- measurement-target: Protein-glutamine gamma-glutamyltransferase K (Homo sapiens)
- Sequence (P22735 whole entry): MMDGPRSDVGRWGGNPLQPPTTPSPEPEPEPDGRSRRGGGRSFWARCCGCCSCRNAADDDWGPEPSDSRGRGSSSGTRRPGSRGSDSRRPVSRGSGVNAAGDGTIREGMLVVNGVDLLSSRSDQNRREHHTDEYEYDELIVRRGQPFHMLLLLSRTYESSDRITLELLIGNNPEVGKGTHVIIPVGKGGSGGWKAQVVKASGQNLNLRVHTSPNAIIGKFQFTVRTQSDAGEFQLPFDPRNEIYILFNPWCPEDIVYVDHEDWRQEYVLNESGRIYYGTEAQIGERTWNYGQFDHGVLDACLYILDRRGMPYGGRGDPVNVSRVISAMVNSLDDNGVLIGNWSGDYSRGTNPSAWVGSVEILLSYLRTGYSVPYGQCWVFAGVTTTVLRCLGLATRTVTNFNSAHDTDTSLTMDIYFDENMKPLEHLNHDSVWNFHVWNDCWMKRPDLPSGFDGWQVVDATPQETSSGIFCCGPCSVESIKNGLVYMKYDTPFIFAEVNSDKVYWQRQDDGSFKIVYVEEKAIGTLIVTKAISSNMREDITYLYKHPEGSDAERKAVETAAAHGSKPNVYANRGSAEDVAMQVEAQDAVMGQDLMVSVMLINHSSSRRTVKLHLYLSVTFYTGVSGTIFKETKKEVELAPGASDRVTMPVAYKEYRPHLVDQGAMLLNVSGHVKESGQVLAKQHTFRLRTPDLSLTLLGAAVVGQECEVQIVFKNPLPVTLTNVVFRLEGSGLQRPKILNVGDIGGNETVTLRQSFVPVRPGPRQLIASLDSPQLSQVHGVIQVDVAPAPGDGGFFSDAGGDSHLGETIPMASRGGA

Past entries and their recorded results:
| line-notation | IC50 |
| --- | --- |
| C[S+](C)CC(=O)NCC(=O)N1CCN(C(=O)C23CC4CC(CC(C4)C2)C3)CC1 | > 100 µM |
| C[S+](C)CC(=O)NCC(=O)N1CCN(C(=O)OCc2ccc3ccccc3c2)CC1 | > 100 µM |

Q: In one line, give reported IC50 of the entry C=CC(=O)NCC(=O)N1CCN(C(=O)OCCC23CC4CC(CC(C4)C2)C3)CC1 .
A: > 100 µM

Q: In one line, give reported IC50 of the entry C[S+](C)CC(=O)NCC(=O)N1CCN(C(=O)OC(C)(C)C)CC1 .
A: > 100 µM
